# Test Protocol: Drug repurposing screens with cells derived from glioblastoma tumor samples (AID 1345199); note: % is set by controls: 0 for no effect and ±100 for the full control effect; nearly all actives have a fitted effect of over 40% in size
# Conditions Used: GBM patient neurospheres viability, ATP luminescence, 48 h; at 45.9 µM (top of the series); tumour line B
Results filed as inconclusive are left out.
Endpoint Label: activity, negative = cell killing (%)

INSERT INTO measurements (compound, measured_number) VALUES
  ('CCN(CCO)CCCC(C)Nc1ccnc2cc(Cl)ccc12 (stereo not given)', -10.8),
  ('NS(=O)(=O)c1cc(C(=O)O)c(NCc2ccco2)cc1Cl', -8.22),
  ('CCC[C@@H]1C[C@@H](C(=O)N[C@@H]([C@H]2O[C@H](SC)[C@H](O)[C@@H](O)[C@H]2O)[C@@H](C)O)N(C)C1', -4.01),
  ('Cc1ccc(C)c(OCCCC(C)(C)C(=O)O)c1', -12.7),
  ('CS(=O)(=O)OCCCCOS(C)(=O)=O', -4.65),
  ('CN(c1nccc(=O)[nH]1)C1CCN(c2nc3ccccc3n2Cc2ccc(F)cc2)CC1', -7.08),
  ('N[C@@H](Cc1cc(I)c(Oc2cc(I)c(O)c(I)c2)c(I)c1)C(=O)O', -5.58),
  ('COc1cc2nc(N3CCN(C(=O)C4CCCO4)CC3)nc(N)c2cc1OC (stereo not given)', -11.4),
  ('COC(=O)N[C@H](C(=O)N[C@@H](Cc1ccccc1)[C@@H](O)CN(Cc1ccc(-c2ccccn2)cc1)NC(=O)[C@@H](NC(=O)OC)C(C)(C)C)C(C)(C)C', -0.919),
  ('C=CCc1cc(OC)c(O)c(C(=O)NCCO)c1', -18.2);

* * *

# Test Protocol: qHTS of pediatric cancer cell lines to identify multiple opportunities for drug repurposing: Primary screen for DAOY cells (AID 1347090); note: nearly all actives have a fitted effect of over 55% in size
# Conditions Used: DAOY medulloblastoma viability, CellTiter-Glo luminescence, 48 h; series mostly up to 46 µM
Results filed as inconclusive are left out. Activity calls are given as the source filed them. The call rests on the fitted dose curve; in most records, active means well fitted cell-killing curve with a large enough effect; inconclusive means small, poorly fitted or top-dose-only effect; inactive means flat fitted curve, though single readings scatter. Peptide text beside a SMILES is read from it.
Possible outcomes: active, inactive

INSERT INTO assay_data (compound, category_label) VALUES
  ('N=C(N)c1ccc2cc(OC(=O)c3ccc(N=C(N)N)cc3)ccc2c1', 'inactive'),
  ('CS(=O)(=O)OCCCCOS(C)(=O)=O', 'inactive'),
  ('CCN(CC)CCOc1ccc(Cc2ccccc2)cc1', 'inactive'),
  ('COCCCOc1ccnc(CS(=O)c2nc3ccccc3[nH]2)c1C (stereo not drawn)', 'inactive'),
  ('COC(=O)[C@H](Cc1ccccc1)NC(=O)[C@@H](N)CC(=O)O (H-Asp-Phe-OMe)', 'inactive'),
  ('Cc1c(C(=O)NN2CCCCC2)nn(-c2ccc(Cl)cc2Cl)c1-c1ccc(Cl)cc1', 'inactive'),
  ('O=P(O)(O)C(O)(Cn1ccnc1)P(=O)(O)O', 'inactive'),
  ('O=C(O)c1cn(-c2ccc(F)cc2)c2cc(N3CCNCC3)c(F)cc2c1=O', 'inactive'),
  ('O=C(NCCO[N+](=O)[O-])c1cccnc1', 'inactive'),
  ('O=c1oc2cc(O)ccc2s1', 'inactive'),
  ('O=C(OC1C[C@H]2CC[C@@H](C1)[N+]21CCCC1)C(O)(c1ccccc1)c1ccccc1 (stereo partly drawn)', 'inactive'),
  ('O=C(O)c1cccc(-c2noc(-c3ccccc3F)n2)c1', 'inactive'),
  ('O=c1ccc2ccc(O)c(O)c2o1', 'active'),
  ('COc1cc2c(N3CCN(C(=O)Nc4ccc(OC(C)C)cc4)CC3)ncnc2cc1OCCCN1CCCCC1', 'inactive'),
  ('O=c1c(O)c(-c2cc(O)c(O)c(O)c2)oc2cc(O)cc(O)c12', 'inactive'),
  ('COCCCN1CCC(NC(=O)c2cc(Cl)c(N)c3c2OCC3)CC1', 'inactive'),
  ('O=C(CCc1ccc(O)cc1)c1c(O)cc(O)cc1O', 'active'),
  ('Cc1cccc(-c2[nH]ncc2-c2ccc3ncccc3n2)n1', 'inactive'),
  ('Cc1cc2c(s1)Nc1ccccc1N=C2N1CCN(C)CC1', 'inactive'),
  ('Cc1cc(Cl)ccc1OCCCC(=O)NO', 'active'),
  ('CCCCN(CCCC)CCC(O)c1cc2c(Cl)cc(Cl)cc2c2cc(C(F)(F)F)ccc12 (stereo not drawn)', 'inactive'),
  ('O=C(O)CCNC(=O)c1ccc(N=Nc2ccc(O)c(C(=O)O)c2)cc1', 'inactive'),
  ('CC1=C(C)C(=O)C(C(CCCCCC(=O)O)c2ccccc2)=C(C)C1=O (stereo not drawn)', 'inactive');
